# REPORTED_CONDITIONS: in acetone, 323.15 K
OBSERVATION_TYPE: solubility (mole fraction)

>  <CHEMICAL_SMILES>
O=P(CCCO)(CCCO)CCCO

>  <MEAS_VALUE>
0.00593

$$$$

###

# REPORTED_CONDITIONS: in isopropanol, 303.21 K
OBSERVATION_TYPE: solubility (mole fraction)

>  <CHEMICAL_SMILES>
O=P(CCCO)(CCCO)CCCO

>  <OBSERVATION_TYPE>
solubility (mole fraction)

>  <MEAS_VALUE>
0.0187

$$$$

###

# REPORTED_CONDITIONS: in isopropanol, 313.17 K
OBSERVATION_TYPE: solubility (mole fraction)

>  <CHEMICAL_SMILES>
O=P(CCCO)(CCCO)CCCO

>  <MEAS_VALUE>
0.027

$$$$

###

# REPORTED_CONDITIONS: in acetone, 298.14 K
OBSERVATION_TYPE: solubility (mole fraction)

>  <CHEMICAL_SMILES>
O=P(CCCO)(CCCO)CCCO

>  <MEAS_VALUE>
0.00101

$$$$

###

# REPORTED_CONDITIONS: in ethanol, 318.08 K

>  <CHEMICAL_SMILES>
O=P(CCCO)(CCCO)CCCO

>  <solubility (mole fraction)>
0.0569

$$$$

###

# REPORTED_CONDITIONS: in acetone, 303.16 K
OBSERVATION_TYPE: solubility (mole fraction)

>  <CHEMICAL_SMILES>
O=P(CCCO)(CCCO)CCCO

>  <MEAS_VALUE>
0.00151

$$$$

###

# REPORTED_CONDITIONS: in n-butanol, 298.13 K
OBSERVATION_TYPE: solubility (mole fraction)

>  <CHEMICAL_SMILES>
O=P(CCCO)(CCCO)CCCO

>  <MEAS_VALUE>
0.011

$$$$

###

# REPORTED_CONDITIONS: in isopropanol, 323.11 K
OBSERVATION_TYPE: solubility (mole fraction)

>  <CHEMICAL_SMILES>
O=P(CCCO)(CCCO)CCCO

>  <MEAS_VALUE>
0.0386

$$$$

###

# REPORTED_CONDITIONS: in acetone, 313.17 K

>  <CHEMICAL_SMILES>
O=P(CCCO)(CCCO)CCCO

>  <solubility (mole fraction)>
0.00303

$$$$

###

# REPORTED_CONDITIONS: in n-propanol, 308.13 K

>  <CHEMICAL_SMILES>
O=P(CCCO)(CCCO)CCCO

>  <solubility (mole fraction)>
0.0517

$$$$

###

# REPORTED_CONDITIONS: in methanol, 313.1 K

>  <CHEMICAL_SMILES>
O=P(CCCO)(CCCO)CCCO

>  <solubility (mole fraction)>
0.115

$$$$

###

# REPORTED_CONDITIONS: in n-butanol, 308.11 K

>  <CHEMICAL_SMILES>
O=P(CCCO)(CCCO)CCCO

>  <solubility (mole fraction)>
0.0163

$$$$

###

# REPORTED_CONDITIONS: in acetone, 318.12 K
OBSERVATION_TYPE: solubility (mole fraction)

>  <CHEMICAL_SMILES>
O=P(CCCO)(CCCO)CCCO

>  <MEAS_VALUE>
0.00425

$$$$
